experiment: Specific surface area of the powder, multipoint BET method; assay type: physicochemical; conditions: powder as obtained
Quantity name: specific surface area (m^2/g)

In [3]: df
Out[3]:
                                   molecule  number
0  Cc1ccc(-c2nc(CCOc3cccc4c3CCC=C4CCC(=O)O)c(C)o2)cc1 [Adjustment Example 2]   20.43
1  Cc1ccc(-c2nc(CCOc3cccc4c3CCC=C4CCC(=O)O)c(C)o2)cc1 [Adjustment Example 4(2)]    17.8
2  Cc1ccc(-c2nc(CCOc3cccc4c3CCC=C4CCC(=O)O)c(C)o2)cc1 [Adjustment Example 1]   42.24
3  Cc1ccc(-c2nc(CCOc3cccc4c3CCC=C4CCC(=O)O)c(C)o2)cc1 [Compound A]     2.4
4  Cc1ccc(-c2nc(CCOc3cccc4c3CCC=C4CCC(=O)O)c(C)o2)cc1 [Adjustment Example 6]    5.46
5  Cc1ccc(-c2nc(CCOc3cccc4c3CCC=C4CCC(=O)O)c(C)o2)cc1 [Adjustment Example 4]   12.51
6  Cc1ccc(-c2nc(CCOc3cccc4c3CCC=C4CCC(=O)O)c(C)o2)cc1 [Adjustment Example 5]    5.00
7  Cc1ccc(-c2nc(CCOc3cccc4c3CCC=C4CCC(=O)O)c(C)o2)cc1 [Adjustment Example 4(1)]     6.7
